Target: acetylcholine muscarinic M1 receptor (Homo sapiens)
Construct: expressed in transfected cells; host or cells: CHOnfat cells (CHO cells with an NFAT reporter) expressing hM1, kept under Geneticin selection
Sequence (P11229 1-460): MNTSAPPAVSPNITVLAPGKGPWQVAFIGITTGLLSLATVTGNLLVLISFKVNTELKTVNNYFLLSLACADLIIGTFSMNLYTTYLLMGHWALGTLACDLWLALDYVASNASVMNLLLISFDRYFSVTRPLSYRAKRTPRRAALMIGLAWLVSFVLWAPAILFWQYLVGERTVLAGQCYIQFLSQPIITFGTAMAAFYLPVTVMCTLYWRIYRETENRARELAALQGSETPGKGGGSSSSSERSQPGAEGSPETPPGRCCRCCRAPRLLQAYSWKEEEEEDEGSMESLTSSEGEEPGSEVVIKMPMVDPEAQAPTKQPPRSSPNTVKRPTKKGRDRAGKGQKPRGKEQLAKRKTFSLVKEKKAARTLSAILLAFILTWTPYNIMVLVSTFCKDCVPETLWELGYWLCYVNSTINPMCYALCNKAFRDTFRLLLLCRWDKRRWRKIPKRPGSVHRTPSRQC
Test: muscarinic FLIPR assay: intracellular calcium in CHOnfat/hM1 cells, potentiation of EC20 acetylcholine
Format: cell-based
Settings: Table 1; CHOnfat/hM1 cells, FLIPR, EC20 acetylcholine (3 nM final); read-out: M1 Pot.
pEC50: −log10 of the molar value.
Class Satisfied: pEC50 at least 7. Class Not satisfied: pEC50 below 7.

O=C1c2cc(CN3CCc4ccccc4C3c3ccncc3)c3ccccc3c2CN1c1ccccc1F (stereo not drawn) [Example 65]
Not satisfied
O=C1c2cc(CN3CC[C@H](F)C3)c3ccccc3c2CN1C1CCCCC1O (stereo partly drawn) [Example 32]
Not satisfied
CC1c2c(cc(CN3CCN(c4ccccc4)CC3)c3ccccc23)C(=O)N1[C@@H]1CCCC[C@@H]1O (stereo partly drawn) [Example 73]
Not satisfied

Reported pEC50 at or above 7? N#CC1(c2ccccc2F)CCN(Cc2cc3c(c4ccccc24)CN([C@@H]2CCCC[C@@H]2O)C3=O)CC1 [Example 60] Satisfied

Dear colleague, could you confirm whether O=C1c2cc(CN3CCN(c4ccccn4)CC3)c3ccccc3c2CN1[C@H]1CCCC[C@@H]1O [Example 74] has pEC50 at or above 7? Satisfied

Does the reported pEC50 for Cn1cc(N2CCN(Cc3cc4c(c5ccccc35)CN([C@H]3CCCC[C@@H]3O)C4=O)CC2)cn1 [Example 80] fall at or above the 7 mark? Not satisfied

# check: pEC50 of Cn1cc(N2CCN(Cc3cc4c(c5ccccc35)CN(C3CCCOC3)C4=O)CC2)cn1 (stereo not drawn) [Example 83] is greater than or equal to 7 Not satisfied

Quick check: does N#CC1(c2ccncc2)CCN(Cc2cc3c(c4ccccc24)CN([C@H]2CCCC[C@@H]2O)C3=O)CC1 [Example 58] have pEC50 greater than or equal to 7? Satisfied

Can O=C1c2cc(CN3C[C@@H](F)[C@H](F)C3)c3ccccc3c2CN1C1CCCCC1O (relative stereo) [Example 29] be said to have pEC50 at or above 7? Not satisfied

Hi, just wondering whether O=C1c2cc(CN3CCC(C(F)(F)F)CC3)c3ccccc3c2CN1C1CCCCC1O (stereo not drawn) [Example 27] shows pEC50 of 7 or higher. Not satisfied
